- Measurement description: Quantitative High-Throughput drug screen in 47 multiple myeloma cell lines against the NCATS MIPE library collection: OCIMY5_PLB cell viability assay (AID 1918988); note: potency is the fitted concentration of half-maximal effect; nearly all actives have a fitted effect of over 65% in size
- Condition: OCI-MY5 myeloma viability, ATP luminescence, 48 h; series mostly up to 45.8 µM
Inconclusive results are not listed. Calls of active or inactive are those of the source. Calls come from the whole dose curve; as a rule, active = well fitted cell-killing curve with a large enough effect; inconclusive = small, poorly fitted or top-dose-only effect, or effect the other way; inactive = no such curve, though single readings can be large or run the other way.
Readout name: Potency

Illustrative cases are given below, each with its answer.
- Test smiles: "C=CCc1cccc(C=NNC(=O)CN2CCN(Cc3ccccc3)CC2)c1O"
  Observed: "7.43 µM (active)"
- Test smiles: "Cn1cc(-c2ccc3nnc(Sc4ccc5ncccc5c4)n3n2)cn1"
  Observed: "13.2 µM (active)"
- Test smiles: "O=C(C=Cc1ccc(O)cc1)c1ccc(O)cc1O"
  Observed: "14.8 µM (active)"
- Test smiles: "CCN(CC)CCCCNc1nc2cc(Cl)c(Cl)cc2nc1-c1ccc(-c2cccs2)s1"
  Observed: "7.43 µM (active)"
- Test smiles: "CN(C)CCCNC(=O)c1ccc(-c2cc(O)c3ncccc3c2)cc1"
  Observed: "20.9 µM (active)"

Enquiry: Provide one value: measured Potency of `CN1CC(=O)NC1=NC(=O)Nc1cccc(Cl)c1`
Return: 23.5 µM (active)

Enquiry: Provide one value: measured Potency of `COc1ccc2ccc(=O)oc2c1CC=C(C)C`
Return: 8.33 µM (active)

Enquiry: Provide one value: measured Potency of `Cc1ccc(NC(=O)Nc2cc(C(F)(F)F)ccc2F)cc1Nc1ccc2c(c1)NC(=O)C2=Cc1ccc[nH]1`
Return: 23.5 µM (active)
